tested on: Trichophyton benhamiae; test: microbe, parasite or virus in culture
Description: Tested for antimicrobial activity against Trichophyton mentagrophytes (clinical isolate) at concentration of 0.01-5 uM/mL
measurement.kind: MIC (µM)
Express the result in µM but write the number alone.

compound	MIC (µM)
Cc1ccc2nc3n(C)c4ccc(C)cc4c(C)c-3c2c1	30

query: Could you share which MIC value was measured for Cn1c2nc3ccccc3c-2cc2ccccc21 [NEOCRYPTOLEPINE] ?
result: 60

query: Dear colleague, I am looking for the recorded MIC of the following compound: Cc1c2c3ccccc3nc-2n(C)c2c(C)cccc12
result: 60

query: Query (compound): Cc1ccc2c(c1)c(C)c1c3ccccc3nc-1n2C ; field requested: MIC
result: 30

query: // MIC lookup, key: Cc1c2c3ccccc3nc-2n(C)c2ccccc12
result: 60

###

tested on: Micrococcus luteus; test: microbe, parasite or virus in culture
Description: Tested for antimicrobial activity against Micrococcus luteus PCM 525 at concentration of 0.01-5 uM/mL
Define the label as true when MIC is strictly less than 60 µM and as false in all remaining cases.

Worked set:
compound	label.value
Cc1ccc2c(c1)c(C)c1c3ccccc3nc-1n2C	true
Cc1ccc2nc3n(C)c4ccc(C)cc4c(C)c-3c2c1	true

query: Input Cc1c2c3ccccc3nc-2n(C)c2c(C)cccc12 ; condition: MIC strictly below 60 µM. Does it hold?
result: false

query: For Cn1c2nc3ccccc3c-2cc2ccccc21 [NEOCRYPTOLEPINE] , is the recorded MIC below the cut-off of 60 µM?
result: false

###

test: physchem
Description: Acid ionization constant is determined
measurement.kind: pKa
No unit in the answer, only the number.

Worked examples, 10 molecules total:
molecule	test.value
Cn1c2nc3ccccc3c-2cc2ccccc21 [NEOCRYPTOLEPINE]	7.24
Cc1cccc2c(C)c3c(nc12)[nH]c1ccccc13	5.78
Cc1ccc2nc3[nH]c4ccc(C)cc4c(C)c-3c2c1	5.98
Cc1c2ccncc2c(C)c2c1[nH]c1ccccc12	7.4
Cc1c2c3ccccc3nc-2[nH]c2ccccc12	5.7
Cc1ccc2[nH]c3nc4ccccc4c-3c(C)c2c1	5.73
Cc1ccc2c(c1)c(C)c1c3ccccc3nc-1n2C	7.6
Cc1ccc2[nH]c3nc4ccccc4c(C)c3c2c1	5.8
Cc1c2c3ccccc3nc-2n(C)c2c(C)cccc12	7.62
Cc1c2c3ccccc3nc-2n(C)c2ccccc12	7.45

query: So what's the measured pKa for this one? c1ccc2[nH]c3nc4ccccc4c-3cc2c1
result: 5.55

query: Record request: pKa value, item Cc1ccc2nc3n(C)c4ccc(C)cc4c(C)c-3c2c1
result: 7.68

###

tested on: Nucleic Acid; conditions: Bos taurus
Description: Increase of calf thymus DNA denaturation temperature (delta Tm)
Threshold check on ΔTm: at or above 2 °C gives true (1), strictly below gives false (0).

Some solved entries appear below for comparison.
compound	label.value
Cc1c2c3ccccc3nc-2[nH]c2ccccc12	false (0)
COc1cccc2c1C(=O)c1c(O)c3c(c(O)c1C2=O)C[C@@](O)(C(=O)CO)C[C@@H]3O[C@H]1C[C@H](N)[C@H](O)[C@H](C)O1	true (1)
Cc1c2c3ccccc3nc-2n(C)c2ccccc12	true (1)
Cc1c2ccncc2c(C)c2c1[nH]c1ccccc12 [ELLIPTECINE]	true (1)
Cc1cccc2c(C)c3c(nc12)[nH]c1ccccc13	false (0)
Cc1ccc2nc3n(C)c4ccc(C)cc4c(C)c-3c2c1	true (1)
Cc1ccc2[nH]c3nc4ccccc4c(C)c3c2c1	false (0)
Cc1c2c3ccccc3nc-2n(C)c2c(C)cccc12	true (1)

query: Is it the case that Cc1ccc2c(c1)c(C)c1c3ccccc3nc-1n2C has ΔTm reaching or exceeding 2 °C?
result: true (1)

query: Assess whether reported ΔTm for Cn1c2nc3ccccc3c-2cc2ccccc21 [NEOCRYPTOLEPINE] sits at 2 °C or higher.
result: true (1)

query: // inclusive: ΔTm at least 2 °C? input: Cc1ccc2nc3[nH]c4ccc(C)cc4c(C)c-3c2c1
result: false (0)

query: Would you say Cc1ccc2[nH]c3nc4ccccc4c-3c(C)c2c1 shows ΔTm at minimum 2 °C?
result: false (0)

query: Decide: is the reported value of ΔTm for c1ccc2[nH]c3nc4ccccc4c-3cc2c1 equal to or greater than 2 °C?
result: false (0)
